assay: Oral bioavailability in Wistar rat at 10 mg/kg administered via gavage by LC/MS/MS analysis; format: ADME, organism-based; conditions: in vivo
Rule: rule met for bioavailability not less than 60%, rule not met for anything less.

Test whether the compound "COc1ccc(N2CCOCC2)c2sc(NC(=O)C(C)(C)Oc3ccc(F)c(F)c3)nc12" records bioavailability of 60% or higher.
rule not met

Does the reported bioavailability for COc1ccc(N2CCOCC2)c2sc(NC(=O)C3(C)CCC(C)(O)CC3)nc12 (stereo not given) fall at or above the 60% mark?
rule met

Check this compound for bioavailability at or above 60%: "COc1ccc(N2CCOCC2)c2sc(NC(=O)C(C)(C)Oc3ccc(F)cc3)nc12"
rule not met

Given "COc1cnc(N2CCOCC2)c2sc(NC(=O)C(C)(C)Oc3ccc(F)cc3)nc12" , state whether its bioavailability is at least 60%.
rule not met

###

Answer each item with its documented IC50 at 10 min.
target: CYP3A (Homo sapiens, UniProt P08684+P20815+P24462+Q9HB55); experiment: Inhibition of CYP3A in human liver microsomes at 5 to 25 uM using testosterone as substrate preincubated for 5 mins with substrate followed by NADPH addition measured after 10 mins by LC-MS/MS analysis; type: ADME; conditions: human liver microsomes, probe testosterone

IC50 at 10 min recorded for this compound, CCN(CC)C1CCC(C)(C(=O)Nc2nc3c(OC)ccc(N4CCOCC4)c3s2)CC1 (configuration not stated) , is > 50 µM

Lab note: COc1ccc(N2CCOCC2)c2sc(NC(=O)C3(C)CCC(C)(O)CC3)nc12 (configuration not stated) gave IC50 at 10 min of > 25 µM

###

assay: AUC (0 to t) in Wistar rat at 3 mg/kg, iv by LC/MS/MS analysis; assay type: ADME, organism-based; settings: in vivo
AUC(0-t) below 8 µM·h gives 0; AUC(0-t) at or above it gives 1.

Test whether the molecule "COc1cnc(N2CCOCC2)c2sc(NC(=O)C(C)(C)Oc3ccc(F)cc3)nc12" records AUC(0-t) of 8 µM·h or higher.
1

Given the entry "COc1ccc(N2CCOCC2)c2sc(NC(=O)C(C)(C)Oc3ccc(F)cc3)nc12" , answer whether its AUC(0-t) meets or surpasses 8 µM·h.
0

Hi team, for "COc1ccc(N2CCOCC2)c2sc(NC(=O)C(C)(C)Oc3ccc(F)c(F)c3)nc12" , is the recorded AUC(0-t) at or above 8 µM·h?
1

For this molecule, is measured AUC(0-t) 8 µM·h or higher? COc1ccc(N2CCOCC2)c2sc(NC(=O)C3(C)CCC(C)(O)CC3)nc12 (stereo not given)
0

Reported AUC(0-t) reaches at least 8 µM·h for CCN(CC)C1CCC(C)(C(=O)Nc2nc3c(OC)ccc(N4CCOCC4)c3s2)CC1 (stereo not given) ?
0

###

Record form. Attribute: Papp A→B at 1.5 h, 5 µM. Fill in for each entry.
assay: Apparent permeability across apical to basolateral side in human Caco2 cells at 5 uM after 90 mins; assay type: ADME, cell-based; conditions: Caco-2
Return type: number; implicit unit ×10⁻⁶ cm/s.

Sample CCN(CC)C1CCC(C)(C(=O)Nc2nc3c(OC)ccc(N4CCOCC4)c3s2)CC1 (configuration not stated) ; Papp A→B at 1.5 h, 5 µM observed: 3.7

Papp A→B at 1.5 h, 5 µM in this record for COc1ccc(N2CCOCC2)c2sc(NC(=O)C3(C)CCC(C)(O)CC3)nc12 (configuration not stated) : 12.2
